experiment: folding enthalpy; higher = less favourable; fluorescence melt of hairpins on a sequencing array, two-state fit; settings: sodium 0.088 M
Assign folding enthalpy to each entry below.
One number for each entry, in kcal/mol.

// known answers, use as guide
GGGGCTGGAAACAACCCC ((((.((....)).))))	-41.2
TAGGTGAAAACCTA (((((....)))))	-15.4
GATCTTGAGCAAGATC ((((((....))))))	-33.5
GATCACGTCGGTGATC ((((((....))))))	-36.5
GACGACGGAAACGTCGCC (.(((((....))))).)	-12.2
GAAGCCCCGAAAGGGTTC (((..(((....))))))	-14.3
GTCTACGAAAGTAGAGAC ((((((....)))..)))	-12.8
GATCTCTCTTGAGATC ((((((....))))))	-37.9

Would you mind giving folding enthalpy for every sequence in the list below?
1. GATCCTGCTGAGGATC ((((((....))))))
2. GCGTTCGAAAGAAGCCGC ((((((....)))..)))

Resp:
[-52.2, -22.7]

Would you mind giving folding enthalpy for every sequence in the list below?
1. GGAATCGGAAACAATTCC (((((.(....).)))))
2. GATCCTCCCCAGGATC ((((((....))))))

Resp:
-27.8
-43.7

Numbers sourced from the array DNA melting data of Ke et al. (doi:10.1101/2024.01.08.574731).
